target: porcine pancreatic elastase (PPE) (Sus scrofa); construct: purchased Sigma; assay: Anti-elastase assay (release of p-nitroaniline from N-succinyl-ala-ala-ala-p-nitroanilide); type: biochemical; conditions: n = 3; text says elastase in HaCaT cells, method uses PPE; read-out: Anti-Elastase Activity (IC50 ± SD) (converted)
Sequence (P00772 27-266): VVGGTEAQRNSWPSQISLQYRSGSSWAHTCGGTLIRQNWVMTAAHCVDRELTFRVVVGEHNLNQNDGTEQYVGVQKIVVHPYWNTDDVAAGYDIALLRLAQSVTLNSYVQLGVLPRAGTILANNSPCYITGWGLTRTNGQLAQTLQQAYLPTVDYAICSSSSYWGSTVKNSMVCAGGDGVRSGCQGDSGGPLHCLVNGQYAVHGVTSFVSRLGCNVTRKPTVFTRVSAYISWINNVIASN
IC50 overview

{"compound": "CCCCCCCCCCCC(=O)O", "IC50": "> 250 µM"}
{"compound": "C[C@H]1[C@H](C)CC[C@]2(C(=O)O)CC[C@]3(C)C(=CC[C@@H]4[C@@]5(C)CC[C@H](O)C(C)(C)[C@@H]5CC[C@]43C)[C@H]12 [Ursolic acid, ursolic acid, reference compound]", "IC50": "54.3 µM"}
{"compound": "CCCCCCCCCCCCCCCCCC(=O)OCC [Compound 6, ethyl stearate]", "IC50": "≥ 160 µM"}
{"compound": "CCCCCCCCCCCCCCCCCCC(=O)OCC [Compound 5, ethyl nonadecanoate]", "IC50": "≥ 153 µM"}
{"compound": "CCCCCCCCCCCCCCCCCC(=O)OCC [ethyl stearate]", "IC50": "> 160 µM"}
{"compound": "CCCCCCCCCCCCCCCCCCC(=O)OCC [ethyl nonadecanoate]", "IC50": "> 153 µM"}
{"compound": "CC[C@H](C=C[C@@H](C)[C@H]1CC[C@H]2[C@@H]3CC=C4CC(O)CC[C@]4(C)[C@H]3CC[C@]12C)C(C)C (stereo partly drawn)", "IC50": "> 121 µM"}
{"compound": "CC[C@H](CC[C@@H](C)[C@H]1CC[C@H]2[C@@H]3CC=C4C[C@@H](O)CC[C@]4(C)[C@H]3CC[C@]12C)C(C)C", "IC50": "> 121 µM"}
{"compound": "C=CC(C)C1CCC2C1CCC1C3CCCCC3CCC12 (stereo not drawn)", "IC50": "> 349 µM"}
